Here, each record is paired with measured Ki data.
Target: Cholecystokinin receptor type A (Cavia porcellus)
Sequence (Q63931 whole entry): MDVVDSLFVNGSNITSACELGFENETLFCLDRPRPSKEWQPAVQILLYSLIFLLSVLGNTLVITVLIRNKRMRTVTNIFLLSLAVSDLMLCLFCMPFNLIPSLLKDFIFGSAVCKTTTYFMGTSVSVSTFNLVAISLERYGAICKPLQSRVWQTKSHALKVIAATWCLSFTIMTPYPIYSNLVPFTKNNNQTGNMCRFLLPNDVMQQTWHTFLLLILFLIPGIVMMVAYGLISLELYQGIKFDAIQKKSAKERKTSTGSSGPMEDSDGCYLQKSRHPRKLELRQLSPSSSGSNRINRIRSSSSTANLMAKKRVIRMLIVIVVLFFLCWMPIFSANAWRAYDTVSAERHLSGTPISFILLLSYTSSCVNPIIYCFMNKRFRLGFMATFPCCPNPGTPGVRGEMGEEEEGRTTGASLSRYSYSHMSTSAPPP
Test: In vitro inhibitory activity against Cholecystokinin type A receptor using [125I]BH-CCK-8S as radioligand in guinea pig pancreatic cells
Please respond with the number in µM and leave the unit unwritten.

Illustrative cases are given below, each with its answer.
{"columns": ["compound", "test_system", "Ki (µM)"],
 "data": [
  ["O=C(O)c1cc(NC(=O)[C@H](Cc2ccccc2)NC(=O)c2cc3[nH]ccc3cc2C(=O)NCC23CC4CC(CC(C4)C2)C3)cc(C(=O)O)c1", "Cholecystokinin receptor type A (Cavia porcellus)", 3.39],
  ["O=C(O)c1cc(NC(=O)[C@H](Cc2ccccc2F)NC(=O)c2cc3[nH]cnc3cc2C(=O)NCC23CC4CC(CC(C4)C2)C3)cc(C(=O)O)c1", "Cholecystokinin receptor type A (Cavia porcellus)", 2.57],
  ["O=C(O)c1cc(NC(=O)[C@H](Cc2ccccc2)NC(=O)c2cc3ccccc3cc2C(=O)NCC23CC4CC(CC(C4)C2)C3)cc(C(=O)O)c1", "Cholecystokinin receptor type A (Cavia porcellus)", 0.851]
]}

Kindly consider the entry below.
Briefly, Ki measured for O=C(O)C1C2c3ccccc3C(c3ccccc32)C1C(=O)NCC12CC3CC(CC(C3)C1)C2 (centres undefined) : 8.32
